Measured values drawn from ChEMBL document CHEMBL4513216 for this set.

# Experiment Notes: Toxicity liver stage against HepG2, at 10uM
# Assay type: cell-based
# Set-up: test concentration 10 uM, cell line HepG2-A16-CD81EGFP
# Reported Conditions: human, HepG2-A16-CD81EGFP cells; read-out: INHIBITION
Attribute: cytotoxicity at 10 µM
Field format: number, assumed %, no unit text.

These recorded examples may help you get a feel for the data.
| Molecule | cytotoxicity at 10 µM (%) |
| --- | --- |
| COCc1ccc(C(=O)N2CCC(c3nccn3CC3CC3)CC2)o1 | -2.81 |
| CCOC(=O)CNc1nc(C(C)(C)C)nc2c1cnn2C | -12.8 |
| Cc1ccc(N(C)CC(O)COCc2ccccc2F)c(C)c1 (configuration not stated) | 18 |
| CNS(=O)(=O)CC1CCCN1c1ccc(Cl)cn1 (configuration not stated) | 7.6 |
| COC(=O)C1CCN(C(=O)c2ccc(N(C)S(C)(=O)=O)c(C)c2)CC1 | -1.18 |

Ask: GET /values?readout=cytotoxicity at 10 µM&item= CC(Nc1ccc(Oc2cccc(C#N)c2)cc1)C(=O)NC1CC1 (configuration not stated)
Result: 6.91

Ask: GET /values?readout=cytotoxicity at 10 µM&item= Cc1ccc(S(=O)(=O)NCc2cnn(C)c2)c(F)c1
Result: -13

Ask: GET /values?readout=cytotoxicity at 10 µM&item= CCCN(CC(=O)OC)C(=O)c1sc(C)nc1C
Result: -2.42

Ask: GET /values?readout=cytotoxicity at 10 µM&item= CC(OCC1CC1)C(=O)NCc1cccc(CN2CCCC2=O)c1 (configuration not stated)
Result: 3.05

Ask: GET /values?readout=cytotoxicity at 10 µM&item= CC1c2ncc(Cn3cncn3)n2CCN1C(=O)Cc1cccs1 (configuration not stated)
Result: 7.89

Ask: GET /values?readout=cytotoxicity at 10 µM&item= CC(C)(C)c1ncc(C(=O)NCCn2ccnc2)s1
Result: 3.39

Ask: GET /values?readout=cytotoxicity at 10 µM&item= CN(C(=O)c1ccc(Cl)cn1)c1ccccc1S(C)(=O)=O
Result: -7.17

* * *

# Experiment Notes: Toxicity liver stage against HepG2, at 10uM
# Format: cell-based
# Design: test concentration 10 uM, cell line HepG2-A16-CD81EGFP
# Reported Conditions: human, HepG2-A16-CD81EGFP cells; read-out: INHIBITION
Parameter Measured: cytotoxicity at 10 µM (%)
Field format: number, assumed %, no unit text.

These recorded examples may help you get a feel for the data.
| Compound | Recorded Value |
| --- | --- |
| CCc1ncncc1C(=O)NCCNc1ncnc2sccc12 | -5.68 |
| Cc1noc(C)c1C(=O)N1CC[C@]2(C[C@@H](OCc3cccnc3)CO2)C1 | -79.7 |
| CC(C)(C)n1ncc2c(=O)[nH]c(N3CCC4(CCCCC4)C3)nc21 | -7.72 |
| COc1ccc(CN2CCC3(CC2)CCN(CC(C)C)C3=O)cc1 | 3.17 |
| CNC(=O)c1cn[nH]c1C1(C)CCCN(CC2(O)CCCCC2)C1 (stereo unspecified) | -26 |
| CC(C)c1noc(CS(=O)(=O)CC(=O)NCCOc2ccccc2)n1 | -10 |
| COc1ccccc1CN1C(=O)O[C@@H]2CN(C(C)C)C[C@@H]21 | 3.99 |
| Cc1ccc(C(=O)CCC(=O)N2CCC(c3nncn3C)CC2)cc1 | -9.86 |
| CCc1csc(C2CCCN(C(=O)c3cc(Cl)c[nH]3)C2)n1 (stereo unspecified) | -9.83 |
| O=C(NCC1CC1)[C@H]1CN(Cc2nccs2)C[C@H]2OCC[C@@H]12 | -109 |

# evaluate next
Ask: GET /values?readout=cytotoxicity at 10 µM&item= Cc1ccc(CS(=O)(=O)NCc2ccco2)cc1
Result: -2.11

* * *

# Experiment Notes: Toxicity liver stage against HepG2, at 10uM
# Format: cell-based
# Design: test concentration 10 uM, cell line HepG2-A16-CD81EGFP
# Reported Conditions: human, HepG2-A16-CD81EGFP cells; read-out: INHIBITION
Attribute: cytotoxicity at 10 µM
Field format: number, assumed %, no unit text.

| Compound | cytotoxicity at 10 µM [%] |
| --- | --- |
| COCCn1c2c(ccc1=O)CCN(C(=O)Cc1ccsc1)CC2 | 2.22 |

Ask: GET /values?readout=cytotoxicity at 10 µM&item= CCOCc1cncc2c1CCN(S(=O)(=O)c1ccc(C)cc1)C2
Result: 11.2

Ask: GET /values?readout=cytotoxicity at 10 µM&item= NC(=O)Cn1ccc(NC(=O)C2(c3ccc(F)cc3)CC2)n1
Result: -2.82

Ask: GET /values?readout=cytotoxicity at 10 µM&item= CC(C)CNC(=O)CN1CCCC(c2ccc(C(=O)O)cc2)C1 (centres undefined)
Result: -6.49

Ask: GET /values?readout=cytotoxicity at 10 µM&item= Cc1nc(C)n(CC2CCCN(c3ncnc4ccsc34)C2)n1 (centres undefined)
Result: 42.4

Ask: GET /values?readout=cytotoxicity at 10 µM&item= CCC1(c2ccc(NS(=O)(=O)c3cccs3)cc2)CCC(=O)NC1=O (centres undefined)
Result: -8.55

Ask: GET /values?readout=cytotoxicity at 10 µM&item= COc1ccc(S(=O)(=O)NCC(C)(O)c2cccs2)cc1Cl (centres undefined)
Result: -11.5

Ask: GET /values?readout=cytotoxicity at 10 µM&item= CCOc1ccc(C(=O)CCC(=O)N(C)Cc2noc(C)n2)cc1C
Result: -4.34

Ask: GET /values?readout=cytotoxicity at 10 µM&item= CC(C)c1noc(CN(C)C(=O)c2ncn[nH]2)n1
Result: 6.2

Ask: GET /values?readout=cytotoxicity at 10 µM&item= Cc1ccnn1CCN1CCCC2(CCC(=O)N(C3CCCC3)C2)C1 (centres undefined)
Result: 5.93

Ask: GET /values?readout=cytotoxicity at 10 µM&item= COc1ccc(C(=O)NS(=O)(=O)c2cncc(Br)c2)cc1
Result: -1.91

Ask: GET /values?readout=cytotoxicity at 10 µM&item= CN(C)C(CNC(=O)c1[nH]nc(C2CC2)c1Br)C1CC1 (centres undefined)
Result: -4.14

Ask: GET /values?readout=cytotoxicity at 10 µM&item= Cc1cc(C)cc(CNC(C)c2c(C)nn(C)c2C)c1 (centres undefined)
Result: 5.14

Ask: GET /values?readout=cytotoxicity at 10 µM&item= Cc1nc(-c2ccco2)ccc1C(=O)NCCCN1CCOCC1
Result: -4.02

Ask: GET /values?readout=cytotoxicity at 10 µM&item= CCN1CCC2(CC1)CC(NC(=O)N(C)C)c1cc(C)ccc12 (centres undefined)
Result: -13.1

Ask: GET /values?readout=cytotoxicity at 10 µM&item= Cc1noc(C)c1CN(Cc1cccnc1)C1CN2CCC1CC2 (centres undefined)
Result: 1.91

Ask: GET /values?readout=cytotoxicity at 10 µM&item= CC1CCc2nc(NC(=O)CN(C)C(=O)c3ccco3)sc2C1 (centres undefined)
Result: -11.4

* * *

Attribute: cytotoxicity at 10 µM
# Experiment Notes: Toxicity liver stage against HepG2, at 10uM
# Format: cell-based
# Set-up: test concentration 10 uM, cell line HepG2-A16-CD81EGFP
# Reported Conditions: human, HepG2-A16-CD81EGFP cells; read-out: INHIBITION
Field format: number, assumed %, no unit text.

These recorded examples may help you get a feel for the data.
| Compound | cytotoxicity at 10 µM, % |
| --- | --- |
| COCc1nc(N(C)C)ncc1C(=O)NC(C)c1ccccc1 (stereo unspecified) | 6.03 |
| CC(C)c1nc2n(n1)CC(NCc1ncc(C(C)(C)C)o1)CC2 (stereo unspecified) | -17.8 |
| C1CCC(CNC2CCCN(Cc3noc(C4CC4)n3)C2)C1 (stereo unspecified) | -2.34 |
| CS(=O)(=O)N1CC(c2nc[nH]n2)c2cc(C(=O)NC3CC3)ccc21 (stereo unspecified) | -158 |
| Cc1ccc(F)c2c1CCCN2C(=O)c1cn(CC(=O)N(C)C)nn1 | -0.367 |
| COCc1csc(NC(=O)NCc2ccccn2)n1 | 11.3 |
| CCOC(=O)CC1(Nc2nc(C)nc3c2cnn3C)CCCCC1 | 5.03 |
| COc1ccc(C2CCCN2C(=O)c2ccnc(NC3CC3)c2)cc1 (stereo unspecified) | 3.07 |

Ask: GET /values?readout=cytotoxicity at 10 µM&item= CNC(=O)[C@@H]1C[C@@H](NC(=O)CSc2ccccc2)CN1C1CCOCC1
Result: 2.14

Ask: GET /values?readout=cytotoxicity at 10 µM&item= Cc1csc(NC(=O)CN2CCCC(Cn3nc(C)nc3C)C2)n1 (stereo unspecified)
Result: -3.95

Ask: GET /values?readout=cytotoxicity at 10 µM&item= Nc1cc2c(nn1)CCN(C(=O)c1csc(-c3cccs3)n1)C2
Result: -1.32

* * *

Attribute: cytotoxicity at 10 µM
# Experiment Notes: Toxicity liver stage against HepG2, at 10uM
# Assay type: cell-based
# Set-up: test concentration 10 uM, cell line HepG2-A16-CD81EGFP
# Reported Conditions: human, HepG2-A16-CD81EGFP cells; read-out: INHIBITION
Field format: number, assumed %, no unit text.

| Molecule | Parameter Measured | Display Unit | Recorded Value |
| --- | --- | --- | --- |
| CC(NCCc1nccn1Cc1ccccc1)c1ccsc1 (stereo unspecified) | cytotoxicity at 10 µM | % | 8.4 |

Ask: GET /values?readout=cytotoxicity at 10 µM&item= Brc1cnc(NCCCOCC2CCOC2)nc1 (stereo unspecified)
Result: -2.15

Ask: GET /values?readout=cytotoxicity at 10 µM&item= OC1CCN(CCCNc2nccc(C3CCCC3)n2)CC1
Result: -1.81

Ask: GET /values?readout=cytotoxicity at 10 µM&item= Cc1nc(CO[C@H]2CN(C(=O)c3cccn3C)[C@@H]3COC[C@H]23)cs1
Result: -112

Ask: GET /values?readout=cytotoxicity at 10 µM&item= COc1ccc(C(=O)NCCCNc2ncccn2)cc1F
Result: -10.5

Ask: GET /values?readout=cytotoxicity at 10 µM&item= COc1cccc(F)c1CN1CCC(c2nccc(C)n2)C1 (stereo unspecified)
Result: 5.29
